Task for the reader: assign each of the following compounds its reported DC50.
Assay target: PTPN2 (HiBIT-PTPN2 in 293T.109 cells) (Homo sapiens)
Construct: expressed in transfected cells; host or cells: 293T.109 (293T WT from ATCC)
Sequence (P17706 whole entry, species assumed): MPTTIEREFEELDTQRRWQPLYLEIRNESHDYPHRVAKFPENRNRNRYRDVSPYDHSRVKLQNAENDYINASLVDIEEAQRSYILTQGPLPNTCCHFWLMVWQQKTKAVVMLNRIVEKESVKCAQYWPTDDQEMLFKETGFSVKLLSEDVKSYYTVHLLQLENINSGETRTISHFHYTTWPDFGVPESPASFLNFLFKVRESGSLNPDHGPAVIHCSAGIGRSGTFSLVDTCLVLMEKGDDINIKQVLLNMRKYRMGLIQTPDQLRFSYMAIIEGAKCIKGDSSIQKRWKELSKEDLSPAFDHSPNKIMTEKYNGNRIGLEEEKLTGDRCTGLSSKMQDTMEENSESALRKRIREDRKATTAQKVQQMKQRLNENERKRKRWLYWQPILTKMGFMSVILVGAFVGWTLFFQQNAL
Assay name: HiBiT Degradation 293T.109 PTPN2 (Nano-Glo HiBiT Lytic Assay)
Assay type: cell-based
Measurement conditions: 24.0 hours

// below: answered compounds
[[record]]
compound = "Cn1nc(C2CCC(=O)NC2=O)c2ccc(CCC(=O)Nc3cccc(CS(=O)(=O)N4CCC(Nc5cccc(-c6sc(C(=O)O)c(OCC(=O)O)c6Cl)c5)CC4)c3)cc21 (stereo not drawn) [Example 157]"
result = "200 to 1000 nM"

[[record]]
compound = "Cn1c(=O)n(C2CCC(=O)NC2=O)c2ccc(C3CN(CC(=O)Nc4cccc(CS(=O)(=O)N5CC[C@H](Nc6cccc(-c7sc(C(=O)O)c(OCC(=O)O)c7Cl)c6)CC5(C)C)c4)C3)cc21 (stereo partly drawn) [Example 184]"
result = "< 50 nM"


--- query ---
Task item: Which DC50 is reported for this compound? Cn1c(=O)n(C2CCC(=O)NC2=O)c2ccc(N3CCC(C(=O)Nc4cccc(CS(=O)(=O)N5CCC(Nc6cccc(-c7sc(C(=O)O)c(OCC(=O)O)c7Cl)c6)CC5)c4)CC3)cc21 (stereo not drawn) [Example 112]
Reply: 50 to 200 nM

----------
Assay target: PTPN2 (B16F10.4 cells) (Mus musculus, UniProt Q06180)
Construct: HiBiT; host or cells: B16F10.4
Assay name: HiBiT Degradation B16F10.4 PTPN2
Type: cell-based
Measurement conditions: 24.0 hours
Experimental endpoint: DC50

// below: answered compounds
[[record]]
compound = "CC1(C)C[C@@H](Nc2cccc(-c3sc(C(=O)O)c(OCC(=O)O)c3Cl)c2)CCN1S(=O)(=O)Cc1cccc(NC(=O)C2CN(C(=O)CNc3cccc4c3CN(C3CCC(=O)NC3=O)C4=O)C2)c1 (stereo partly drawn)"
result = "0.2 to 1 µM"

[[record]]
compound = "Cn1c(=O)n(C2CCC(=O)NC2=O)c2ccc(Cc3ccc(CC(=O)Nc4cccc(CS(=O)(=O)N5CC[C@H](Nc6cccc(-c7sc(C(=O)O)c(OCC(=O)O)c7Cl)c6)CC5(C)C)c4)cc3)cc21 (stereo partly drawn)"
result = "< 0.05 µM"

[[record]]
compound = "CC1(C)C[C@@H](Nc2cccc(-c3sc(C(=O)O)c(OCC(=O)O)c3Cl)c2)CCN1S(=O)(=O)Cc1cccc(NC(=O)C2CCN(c3ccc4c5c(cccc35)N(C3CCC(=O)NC3=O)C4=O)CC2)c1 (stereo partly drawn)"
result = "0.05 to 0.2 µM"


Count: 2. Required value per item: DC50.
1. Cn1c(=O)n(C2CCC(=O)NC2=O)c2ccc(N3CCC(OC(=O)Nc4cccc(CS(=O)(=O)N5CC[C@H](Nc6cccc(-c7sc(C(=O)O)c(OCC(=O)O)c7Cl)c6)CC5(C)C)c4)CC3)cc21 (stereo partly drawn)
2. CC1(C)C[C@@H](Nc2cccc(-c3sc(C(=O)O)c(OCC(=O)O)c3Cl)c2)CCN1S(=O)(=O)Cc1cccc(NC(=O)CCCCCCNC(=O)CNc2cccc3c2CN(C2CCC(=O)NC2=O)C3=O)c1 (stereo partly drawn)

Reply:
1. 0.05 to 0.2 µM
2. 0.2 to 1 µM

----------
Task for the reader: assign each of the following compounds its reported DC50.
Assay target: PTPN2 (HiBIT-PTPN2 in 293T.109 cells) (Homo sapiens)
Construct: expressed in transfected cells; host or cells: 293T.109 (293T WT from ATCC)
Assay name: HiBiT Degradation 293T.109 PTPN2 (Nano-Glo HiBiT Lytic Assay)
Type: cell-based
Measurement conditions: 24.0 hours

[[record]]
compound = "CC1(C)C[C@H](Nc2cccc(-c3sc(C(=O)O)c(OCC(=O)O)c3Cl)c2)CCN1S(=O)(=O)Cc1cccc(NC(=O)CCn2cc(CNc3cccc4c3C(=O)N(C3CCC(=O)NC3=O)C4=O)nn2)c1 (stereo partly shown)"
result = "200 to 1000 nM"

[[record]]
compound = "CC1(C)C[C@@H](Nc2cccc(-c3sc(C(=O)O)c(OCC(=O)O)c3Cl)c2F)CCN1S(=O)(=O)Cc1ccc(F)c(NC(=O)N2CCC(c3ccc4c5c(cccc35)C(=O)N4C3CCC(=O)NC3=O)CC2)c1 (single isomer, unassigned)"
result = "50 to 200 nM"

[[record]]
compound = "CC1(C)C[C@@H](Nc2cccc(-c3sc(C(=O)O)c(OCC(=O)O)c3Cl)c2)CCN1S(=O)(=O)Cc1cccc(NC(=O)N2CCC[C@@H](c3ccc4c5c(cccc35)N(C3CCC(=O)NC3=O)C4=O)CC2)c1 (stereo partly shown)"
result = "50 to 200 nM"


Task item: Which DC50 is reported for this compound? O=C(O)COc1c(C(=O)O)sc(-c2cccc(N[C@H]3CCN(S(=O)(=O)Cc4cccc(NC(=O)N5CCC(c6ccc7c8c(cccc68)C(=O)N7C6CCC(=O)NC6=O)CC5)c4)C4(CC4)C3)c2)c1Cl (stereo partly shown)
Reply: 50 to 200 nM

----------
Task for the reader: assign each of the following molecules its reported DC50.
Assay target: PTPN2 (B16F10.4 cells) (Mus musculus, UniProt Q06180)
Construct: HiBiT; host or cells: B16F10.4
Sequence (Q06180 1-406): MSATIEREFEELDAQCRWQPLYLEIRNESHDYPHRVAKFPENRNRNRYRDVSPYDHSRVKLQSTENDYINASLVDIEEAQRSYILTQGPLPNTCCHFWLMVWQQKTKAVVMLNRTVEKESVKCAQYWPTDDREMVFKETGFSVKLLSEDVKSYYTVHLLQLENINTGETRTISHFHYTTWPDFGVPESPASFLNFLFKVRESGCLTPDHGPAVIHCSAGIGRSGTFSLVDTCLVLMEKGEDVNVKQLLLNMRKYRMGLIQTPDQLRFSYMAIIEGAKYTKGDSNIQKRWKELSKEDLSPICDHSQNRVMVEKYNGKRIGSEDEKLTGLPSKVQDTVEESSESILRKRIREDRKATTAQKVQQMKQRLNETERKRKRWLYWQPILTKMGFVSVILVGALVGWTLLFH
Assay name: HiBiT Degradation B16F10.4 PTPN2
Type: cell-based
Measurement conditions: 24.0 hours

[[record]]
molecule = "Cn1c(=O)n(C2CCC(=O)NC2=O)c2ccc(C3CCN(C(=O)Nc4cccc(CS(=O)(=O)N5CC[C@H](Oc6cccc(-c7sc(C(=O)O)c(OCC(=O)O)c7Cl)c6)CC5(C)C)c4)CC3)cc21 (stereo partly drawn)"
result = "50 to 200 nM"

[[record]]
molecule = "O=C(O)COc1c(C(=O)O)sc(-c2cccc(NC3CCN(S(=O)(=O)Cc4cccc(NC(=O)C5CN(C(=O)CNc6cccc7c6CN(C6CCC(=O)NC6=O)C7=O)C5)c4F)CC3)c2)c1Cl (stereo not drawn)"
result = "≥ 1000 nM"


Task item: Which DC50 is reported for this molecule? CC1(C)C[C@@H](Nc2cccc(-c3sc(C(=O)O)c(OCC(=O)O)c3Cl)c2)CCN1S(=O)(=O)Cc1cccc(NC(=O)N2CCC(c3ccc4c(c3)c3cccnc3n4C3CCC(=O)NC3=O)CC2)c1 (stereo partly drawn)
Reply: 200 to 1000 nM

----------
Assay target: PTPN2 (B16F10.4 cells) (Mus musculus, UniProt Q06180)
Construct: HiBiT; host or cells: B16F10.4
Assay name: HiBiT Degradation B16F10.4 PTPN2
Format: cell-based
Measurement conditions: 24.0 hours
Experimental endpoint: DC50

Count: 6. Required value per item: DC50.
1. CC(C)n1c(=O)n(C2CCC(=O)NC2=O)c2ccc(C3CCN(CC(=O)Nc4cccc(CS(=O)(=O)N5CC[C@H](Nc6cccc(-c7sc(C(=O)O)c(OCC(=O)O)c7Cl)c6)CC5(C)C)c4)CC3)cc21 (stereo partly drawn)
2. Cn1c(=O)n(C2CCC(=O)NC2=O)c2ccc(C3CCN(C(=O)Nc4cccc(CS(=O)(=O)N5CCC(Nc6cccc(-c7sc(C(=O)O)c(OCC(=O)O)c7Cl)c6F)CC5)c4)CC3)cc21 (stereo not drawn)
3. CC1(C)C[C@@H](Nc2cccc(-c3sc(C(=O)O)c(OCC(=O)O)c3Cl)c2)CCN1S(=O)(=O)Cc1cccc(NC(=O)C2CN(C(=O)CNc3cccc4c3CN([C@H]3CCC(=O)NC3=O)C4=O)C2)c1 (single isomer, unassigned) [Example 44b]
4. O=C(O)COc1c(C(=O)O)sc(-c2cccc(NC3CCN(S(=O)(=O)Cc4cccc(NC(=O)CN5CCC(n6nc(C7CCC(=O)NC7=O)c7ccccc76)CC5)c4)CC3)c2)c1Cl (stereo not drawn)
5. CC1(C)C[C@@H](Nc2cccc(-c3sc(C(=O)O)c(OCC(=O)O)c3Cl)c2)CCN1S(=O)(=O)Cc1cccc(NC(=O)CCn2cc(CNc3cccc4c3C(=O)N(C3CCC(=O)NC3=O)C4=O)nn2)c1 (stereo partly drawn)
6. CC1(C)C[C@@H](Nc2cccc(-c3sc(C(=O)O)c(OCC(=O)O)c3Cl)c2)CCN1S(=O)(=O)Cc1cccc(NC(=O)CCN2CCC(Nc3cccc4c3CN(C3CCC(=O)NC3=O)C4=O)CC2)c1 (stereo partly drawn)

Reply:
1. 0.05 to 0.2 µM
2. 0.05 to 0.2 µM
3. 0.2 to 1 µM
4. ≥ 1 µM
5. 0.2 to 1 µM
6. 0.2 to 1 µM

Count: 2. Required value per item: DC50.
1. CCn1c(=O)n(C2CCC(=O)NC2=O)c2ccc(C3CCN(C(=O)Nc4cccc(CS(=O)(=O)N5CC[C@H](Nc6cccc(-c7sc(C(=O)O)c(OCC(=O)O)c7Cl)c6)CC5(C)C)c4)CC3)cc21 (stereo partly drawn)
2. CC1(C)C[C@@H](Nc2cccc(-c3sc(C(=O)O)c(OCC(=O)O)c3Cl)c2)CCN1S(=O)(=O)Cc1cccc(NC(=O)C2C[C@@H]3CN(C(=O)COc4cccc5c4CN(C4CCC(=O)NC4=O)C5=O)C[C@@H]3C2)c1 (stereo partly drawn)

Reply:
0.05 to 0.2 µM
0.2 to 1 µM

Task item: Which DC50 is reported for this compound? O=C(O)COc1c(C(=O)O)sc(-c2cccc(NC3CCN(S(=O)(=O)Cc4cccc(NC(=O)C5CCN(C(=O)CNc6cccc7c6C(=O)N(C6CCC(=O)NC6=O)C7=O)CC5)c4)CC3)c2)c1Cl (stereo not drawn)
Reply: ≥ 1 µM
